So I've got a bunch of compounds here, and I need their IC50 values.
Tested on: rat mast cell line (RBL-2H3)
assayRemarks: Antigen-induced release of hexosaminidase from a rat mast cell line (RBL-2H3)
Format: cell-based
particulars: inhibition of DNP-HSA antigen-induced hexosaminidase release; tested at 0.3, 3, 10 and 30 μM; read-out: Hex IC50
Give bare numbers, in µM.

compound	displayUnit	IC50
C=C1CCC2C3C(O)C(O)C4CC(NCc5cccc(Oc6ccccc6)c5)CCC4(C)C3CCC12C.CC(=O)O (stereo not drawn)	µM	22.5

Your task in this section: give IC50 for each listed record.
1. C/C=C1/CCC2C3C(CC[C@]12C)[C@@]1(C)CCC(NC)CC1[C@@H](O)[C@@H]3O (stereo partly drawn)
2. CC=C1CCC2C3C(O)C(O)C4CC(NCCCCC)CCC4(C)C3CCC12C.Cl (stereo not drawn)
3. CC(=O)O.CC=C1CCC2C3C(O)C(O)C4CC(NC5CCCCC5)CCC4(C)C3CCC12C (stereo not drawn)

Reply:
1: 9.8; 2: 11.1; 3: 6.6

Your task in this section: give IC50 for each listed record.
1. C=C1CCC2C3C(O)C(O)C4CC(NCc5ccccc5OC)CCC4(C)C3CCC12C.CC(=O)O (stereo not drawn)
2. CCC1(C)CCC2=C1CCC1C2C(O)C(O)C2CC(Nc3ccccc3)CCC21C.Cl (mixture of isomers)
3. CCC1(C)CCC2=C1CCC1C2C(O)C(O)C2CC(NCc3ccccc3)CCC21C.Cl (stereo not drawn) [Compound 146]
4. C=C1CCC2C3C(CC[C@]12C)[C@@]1(C)CC[C@@H](NC(=O)c2ccccc2)CC1[C@@H](O)[C@@H]3O (stereo partly drawn)
5. CCC1(C)CCC2=C1CCC1C2C(O)C(O)C2CC(Nc3cccc(C(F)(F)F)c3)CCC21C.Cl (mixture of isomers)
6. CCC1CCC2C3C(CC[C@]12C)[C@@]1(C)CCC(N)CC1[C@@H](O)[C@@H]3O (stereo partly drawn)

Reply:
1. 11.1
2. 6.9
3. 9
4. 10
5. 22
6. 9.3

Your task in this section: give IC50 for each listed record.
1. C=C1CCC2C3C(O)C(O)C4CC(NCc5ccc(OC(F)(F)F)cc5)CCC4(C)C3CCC12C.CC(=O)O (stereo not drawn)
2. CC=C1CCC2C3C(O)C(O)C4CC(NCCN(C)C)CCC4(C)C3CCC12C.Cl.Cl (stereo not drawn)
3. CC=C1CCC2C3C(O)C(O)C4CC(NC5CCCC5)CCC4(C)C3CCC12C (stereo not drawn)
4. CC(F)=C1CCC2C3C(CC[C@]12C)[C@@]1(C)CCC(N)CC1[C@@H](O)[C@@H]3O (stereo partly drawn)
5. Cc1cccc(CNC2CCC3(C)C(C2)C(O)C(O)C2C4=C(CCC23)C(C)(C)CC4)c1.Cl (stereo not drawn)

Reply:
9.5
9.1
9.6
13.5
10.2

###

Test system: sensitized Brown Norway rats
assayRemarks: Ovalbumin-induced accumulation of inflammatory cells in lung lavage fluid of sensitized Brown Norway rats
Assay type: in vivo, rat
particulars: 5 mg/kg/day for 4 days, p.o., corn oil vehicle; relative to control animals
Description: The ability of a compound to inhibit the allergen-induced accumulation of inflammatory cells such as eosinophils and neutrophils in the lavage fluid obtained from sensitized animals is indicative of that compound's anti-asthma activity. […] The test is conducted as follows. […]
measurementKind: % inhibition of eosinophils (%)
Answers are plain numbers, in %.

Use these answered entries as a reference point.
molecule	tgt	displayUnit	valueMeasured
C/C=C1/CCC2C3C(CC[C@]12C)[C@@]1(C)CC[C@H](N)CC1[C@@H](O)[C@@H]3O (some centres unmarked) [Compound 83]	sensitized Brown Norway rats	%	67
C=C1CCC2C3C(CC[C@]12C)[C@@]1(C)CCC(N)CC1[C@@H](O)[C@@H]3O (some centres unmarked)	sensitized Brown Norway rats	%	24
CC(F)=C1CCC2C3C(CC[C@]12C)[C@@]1(C)CCC(N)CC1[C@@H](O)[C@@H]3O (some centres unmarked) [Compound 95]	sensitized Brown Norway rats	%	14
CCC1CCC2C3C(CC[C@]12C)[C@@]1(C)CCC(N)CC1[C@@H](O)[C@@H]3O (some centres unmarked) [Compound 96]	sensitized Brown Norway rats	%	−9

Please find the next molecule below.
Query: For the record CCC1CCC2C3C(CC[C@]12C)[C@@]1(C)CCC(N)CC1[C@@H](O)[C@@H]3O (some centres unmarked) [Compound 97] , what value of % inhibition of eosinophils is listed for sensitized Brown Norway rats?
Reply: 40

###

So I've got a bunch of compounds here, and I need their % inhibition of eosinophils values.
System: sensitized Brown Norway rats
assayRemarks: Ovalbumin-induced accumulation of inflammatory cells in lung lavage fluid of sensitized Brown Norway rats
Format: in vivo, rat
particulars: 5 mg/kg/day for 4 days, p.o., corn oil vehicle; relative to control animals
One number for each entry, in %.

compound	tgt	valueMeasured
CC=C1CCC2C3C(CC[C@]12C)[C@@]1(C)CCC(N)CC1[C@@H](O)[C@@H]3O (stereo partly shown) [Compound 49]	sensitized Brown Norway rats	52
C/C=C1/CCC2C3C(CC[C@]12C)[C@@]1(C)CC[C@H](N)CC1[C@@H](O)[C@@H]3O (stereo partly shown) [Compound 28]	sensitized Brown Norway rats	85
C=C1CCC2C3C(CC[C@]12C)[C@@]1(C)CC[C@H](N)CC1[C@@H](O)[C@@H]3O (stereo partly shown) [Compound 89]	sensitized Brown Norway rats	57

Please find the next compound below.
Query: For the record CC(F)=C1CCC2C3C(CC[C@]12C)[C@@]1(C)CCC(N)CC1[C@@H](O)[C@@H]3O (stereo partly shown) [Compound 64] , what value of % inhibition of eosinophils is listed for sensitized Brown Norway rats?
Reply: 62

###

assayRemarks: Metabolic stability in human liver S9 fractions
Type: in vitro ADME
particulars: human, s9, 30 min, 10 μM, pH 7
measurementKind: % remaining after 30 min (%)
Numbers only, in %.

compound	% remaining after 30 min / %
CC(F)=C1CCC2C3C(CC[C@]12C)[C@@]1(C)CCC(N)CC1[C@@H](O)[C@@H]3O (some centres unmarked)	88

Your task in this section: give % remaining after 30 min for each listed record.
1. CCC1CCC2C3C(CC[C@]12C)[C@@]1(C)CCC(N)CC1[C@@H](O)[C@@H]3O (some centres unmarked) [Compound 96]
2. COC(=O)C=C1CCC2C3C(CC[C@]12C)[C@@]1(C)CCC(N)CC1[C@@H](O)[C@@H]3O (some centres unmarked)
3. C=C1CCC2C3C(CC[C@]12C)[C@@]1(C)CCC(N)CC1[C@@H](OC)[C@@H]3OC (some centres unmarked)
4. C/C=C1/CCC2C3C(CC[C@]12C)[C@@]1(C)CC[C@H](N)CC1[C@@H](O)[C@@H]3O (some centres unmarked)
5. C=C1CCC2C3C(CC[C@]12C)[C@@]1(C)CC[C@@H](NC(=O)Nc2ccccc2)CC1[C@@H](O)[C@@H]3O (some centres unmarked)

Reply:
1. 94
2. 63
3. 61
4. 91
5. 71

Your task in this section: give % remaining after 30 min for each listed record.
1. CCC1CCC2C3C(CC[C@]12C)[C@@]1(C)CCC(N)CC1[C@@H](O)[C@@H]3O (some centres unmarked) [Compound 97]
2. CC=C1CCC2C3C(CC[C@]12C)[C@@]1(C)CCC(N)CC1[C@@H](O)[C@@H]3O (some centres unmarked)

Reply:
1. 89
2. 85

###

So I've got a bunch of molecules here, and I need their % remaining after 15 min values.
assayRemarks: Metabolic stability in human liver S9 fractions
Assay type: in vitro ADME
particulars: human, s9, 15 min, 10 μM, pH 7
Numbers only, in %.

Use these answered entries as a reference point.
molecule	valueMeasured
C=C1CCC2C3C(CC[C@]12C)[C@@]1(C)CC[C@@H](NC(=O)Nc2ccccc2)CC1[C@@H](O)[C@@H]3O (stereo partly shown) [Compound 137]	93
CCC1CCC2C3C(CC[C@]12C)[C@@]1(C)CCC(N)CC1[C@@H](O)[C@@H]3O (stereo partly shown) [Compound 97]	94
COC(=O)C=C1CCC2C3C(CC[C@]12C)[C@@]1(C)CCC(N)CC1[C@@H](O)[C@@H]3O (stereo partly shown) [Compound 69]	73

Please find the next molecule below.
Query: Value lookup for % remaining after 15 min; key = CC=C1CCC2C3C(CC[C@]12C)[C@@]1(C)CCC(N)CC1[C@@H](O)[C@@H]3O (stereo partly shown) [Compound 49]
Reply: 93

###

So I've got a bunch of molecules here, and I need their half-life values.
assayRemarks: Pharmacokinetics in the rat
Type: in vivo
particulars: plasma
Numbers only, in h.

molecule	measurementKind	valueMeasured
C/C=C1/CCC2C3C(CC[C@]12C)[C@@]1(C)CC[C@H](N)CC1[C@@H](O)[C@@H]3O (some centres unmarked)	half-life	7.5

Please find the next molecule below.
Query: Value lookup for half-life; key = C=C1CCC2C3C(CC[C@]12C)[C@@]1(C)CC[C@H](N)CC1[C@@H](O)[C@@H]3O (some centres unmarked)
Reply: 7.5
